Numbers sourced from PubChem BioAssay (NCI).

Tested on: RPMI-8226 leukemia
Assay: NCI-60 one-dose screen, 48 h (100 = growth as untreated, 0 = no growth, -100 = all killed)
Settings: 10 µM unless noted
The panel holds about 83,000 compounds, 20% with a hit somewhere; the sample as a whole holds those more often.
Binned growth; ranges: Low (below 20%), Mid (20% to below 50%), High (50% or more)

| smiles_input | classification |
| --- | --- |
| CCOC(=O)NN1CC(O)=C(c2nc(-c3ccc(Br)cc3)cs2)C1=N | High |
| CC(C)c1ccc(C(=O)Nc2sc3cc(O)ccc3c2C#N)cc1 | Mid |
| O=[N+]([O-])/C(=C\c1ccco1)c1ccccc1Cl | High |
| O=C(O)CCCc1cnc2c3sccc3nc(SCc3c(Cl)cccc3Cl)n12 | High |
| COc1cc(C(=O)c2c(-c3ccccc3)oc3c(OC)cccc23)cc(OC)c1O | Mid |
| O=C1NC(=C(Cl)Cl)/C(=N/S(=O)(=O)N2CCCCC2)N1 | Low |
| CN1CCN(Cc2ccc(NC(=O)c3cncc(C#Cc4cncc5[nH]ncc45)c3)cc2C(F)(F)F)CC1 | Low |
| O=C1NC(=O)c2c1c1c3ccccc3[nH]c1c1oc3cc(Br)ccc3c21 | High |
| C=C1C(=O)O[C@H]2[C@H]1CC/C(COC(=O)c1cc3cc(F)ccc3[nH]1)=C\CC[C@@]1(C)O[C@@H]21 | Low |

###

System: SNB-75 CNS
Test: NCI-60 one-dose screen, 48 h (100 = growth as untreated, 0 = no growth, -100 = all killed)
Conditions: 10 µM unless noted
This is part of a sample that, as a whole, favours compounds with a hit. Of some 83,000 tested, about 20% had one in any assay.
Decision: growth beneath 30% gives Satisfied; growth meeting or exceeding 30% gives Not satisfied.

| smiles_input | classification |
| --- | --- |
| Cc1ccc(-c2csc(NC(=O)N3CCN(c4cc5c(cc4F)c(=O)c(C(=O)O)cn5C4CC4)CC3)n2)cc1 | Not satisfied |
| COC(=O)C1=Nc2ccc(F)cc2/C1=C\c1sc(Nc2ccc(O)cc2)nc1O | Not satisfied |
| Cn1c(O)c(C(/C=C/c2ccccc2)=Nc2ccccc2N)c(=O)n(C)c1=O | Not satisfied |
| CC(C)c1ccc(-n2c(=S)[nH]c3sc4c(c3c2=O)CCC(=O)C4)cc1 | Not satisfied |
| CCCCCCC(=O)Nc1ncc(Cc2ccc(C)cc2)s1 | Satisfied |

###

Tested on: ACHN renal
Experiment: NCI-60 one-dose screen, 48 h (100 = growth as untreated, 0 = no growth, -100 = all killed)
Conditions: 10 µM unless noted
The panel holds about 83,000 compounds, 20% with a hit somewhere; the sample as a whole holds those more often. The source made the active and inactive calls. Rule for the calls: active = growth percent below 10; inactive = the rest.
measurement_name: growth

| compound | measurement_name | result |
| --- | --- | --- |
| CCOC(=O)C(=Cc1cccc(C#N)c1)C(=O)OCC | growth | 23.7% (inactive) |
| Oc1c(I)cc(-c2nc3ccccc3s2)cc1CN(Cc1ccccn1)Cc1ccccn1 | growth | 8.93% (active) |
| CCC(C)Nc1ccc(NC(C)CC)cc1 (stereo not given) | growth | 85.5% (inactive) |
| COc1cccc(NC(=O)c2cccc(C3CCc4c(cc(OC)c(OC)c4OC)O3)c2)c1 (stereo not given) | growth | 66.8% (inactive) |
| N#Cc1nc(-c2ccc(F)cc2)oc1S(=O)(=O)N1CCN(c2ccc(F)cc2)CC1 | growth | 77.5% (inactive) |
| C=NNc1ccccc1 | growth | 78% (inactive) |
| Cc1ccc2[nH]c(=O)c3c(c2c1)OC(N)=C(C#N)C31C(=O)c2cccc3cccc1c23 (stereo not given) | growth | 95.5% (inactive) |
| O=C(CN1C(=O)/C(=C/c2ccco2)SC1=S)NCCc1c[nH]c2ccc(F)cc12 | growth | 101% (inactive) |
| C=CCn1c(SCC(=O)Nc2ccc(C(=O)/C=C/c3cc(OC)c(OC)c(OC)c3)cc2)nnc1-c1cc(-c2ccc(OC)cc2)nc2ccccc12 | growth | 89.2% (inactive) |
| Cn1c(/C=C/[N+](=O)[O-])cc2ccccc21 | growth | -29.7% (active) |
| O=C(/C=C/c1ccc(Br)cc1)c1ccc(-n2cc(CN3CCN(c4cc5c(cc4F)c(=O)c(C(=O)O)cn5C4CC4)CC3)nn2)cc1 | growth | 93.7% (inactive) |
| NC(=S)N/N=C/c1cn(-c2ccccc2)nc1-c1cc2ccccc2oc1=O | growth | 77.4% (inactive) |
| Cn1cc(-c2nonc2-c2c[nH]c3ccc(F)cc23)c2cc(Br)ccc21 | growth | 38.4% (inactive) |
| C[Se]C(=O)CC1=C2C=C(F)C=CC2/C(=C\c2ccc(S(C)=O)cc2)C1C (stereo not given) | growth | 11% (inactive) |
| CN(C)c1ccc(/C=C/C(=O)c2ccccc2)cc1 | growth | 109% (inactive) |

###

Test system: NCI-H322M lung
Assay: NCI-60 one-dose screen, 48 h (100 = growth as untreated, 0 = no growth, -100 = all killed)
Details: 10 µM unless noted
About 83,000 compounds went through this panel and 20% of them were active in at least one assay; those are over-represented in the sample as a whole. Activity calls are given as the source filed them. Rule for the calls: active = growth percent below 10; inactive = the rest.
measurement_name: growth

| compound | measurement_name | result |
| --- | --- | --- |
| O=C(NCc1ccccc1O)c1cccc2ccccc12 | growth | 95.9% (inactive) |
| CC1CN=C(c2cccc(-c3ccc(-c4ccccc4)o3)c2)N1 (stereo not given) | growth | 4.39% (active) |
| CC1=C(C(=O)n2c3ccccc3c3ccccc32)C(c2cccc([N+](=O)[O-])c2)C(C(=O)n2c3ccccc3c3ccccc32)=C(C)N1 | growth | 98.4% (inactive) |
| COc1ccc(-c2nnc(SCC(=O)Nc3ccc(/C(C)=N\O)cc3)n2-c2ccccc2)cc1OC | growth | 75.7% (inactive) |
| CCOc1ccc(/C=N\N=C\c2ccc(OCC)cc2)cc1 | growth | 99.1% (inactive) |

###

System: NCI-H522 lung
Assay: NCI-60 one-dose screen, 48 h (100 = growth as untreated, 0 = no growth, -100 = all killed)
Conditions: 10 µM unless noted
The panel holds about 83,000 compounds, 20% with a hit somewhere; the sample as a whole holds those more often. The source made the active and inactive calls. The calls were made as follows: active = growth percent below 10; inactive = the rest.

| compound | growth |
| --- | --- |
| N#Cc1c(-c2cccc([N+](=O)[O-])c2)cc(-c2ccc(Nc3nc(Nc4ccc(F)cc4)nc(Nc4ccc(F)cc4)n3)cc2)nc1N | 104% (inactive) |
| CC(=O)N/C(=C1/OC(C(O)C(O)C(O)CO)CN1C)[P+](c1ccccc1)(c1ccccc1)c1ccccc1 (stereo unspecified) | 93.5% (inactive) |
| Cn1c(=O)c2c(nc(NC3=NS(=O)(=O)c4ccccc43)n2Cc2ccccc2)n(C)c1=O | 94.1% (inactive) |
| COc1ccccc1NC(=O)c1ccc(/C=C/C(=O)c2nccn2C)cc1 | -44.8% (active) |
| CCOC(=O)CSc1nc2sc3c(c2c(=O)n1-c1ccc([N+](=O)[O-])cc1)CCCCC3 | 68.8% (inactive) |
| CCNC(=O)Oc1ccc(/C(=C(/C)Cc2ccc(OC)cc2)c2ccc(OCCN3CCCC3)cc2)cc1 | 78.9% (inactive) |
| O=C(O)c1cccc(N/C=C/C(=O)c2cc3cc(Br)ccc3oc2=O)c1 | 91.8% (inactive) |
| C=CC(=O)N1CCN(c2ccc3cccc(NC(=O)c4cnc(C)cn4)c3n2)CC1 | 10.4% (inactive) |
| NNC(=S)N/N=C/c1ccccn1 | -14.3% (active) |
| CCN=C1C=CC(=C(c2ccc(N(C)C)cc2)c2ccc(N(C)C)cc2)c2ccccc21 | -36.8% (active) |
| Cc1ccc2[nH]c(=O)c3c(c2c1)OC(N)=C(C#N)C31C(=O)c2cccc3cccc1c23 (stereo unspecified) | 89.3% (inactive) |
| CCOC(=O)c1c(NC(=O)c2ccc(C(C)(C)C)cc2)sc2cc(O)ccc12 | 96.1% (inactive) |
| C[C@H]1[C@H](C)CC[C@]2(C(=O)O)CC[C@]3(C)C(=CC[C@@H]4[C@@]5(C)C[C@@H](Cc6cn([C@@H]7O[C@H](CO)[C@@H](O)[C@H](O)[C@H]7O)nn6)[C@H](O)C(C)(C)[C@@H]5CC[C@]43C)[C@H]12 | 103% (inactive) |
| O=C1NC(=C(Cl)Cl)/C(=N/S(=O)(=O)N2CCCCC2)N1 | -82.3% (active) |
| CCN(CC)CCNC(=O)c1ccc(-c2nc3ccc4[nH]ncc4c3c3c2CCCC3)cc1 | 50.6% (inactive) |
| c1ccc(CCc2ccccc2-c2cc(-c3ccccc3)on2)cc1 | 80.1% (inactive) |
| Cc1ncc(C(=O)Nc2ccc(CN3CCN(C)CC3)c(C(F)(F)F)c2)cc1C#Cc1cnc(N)c2ccncc12 | -79% (active) |
| COc1ccc(OC)c(-c2cn3nc(-c4c[nH]c5ccc(Br)cc45)sc3n2)c1 | 8.67% (active) |
| CC(C)CN1CC(C(=O)Nc2ccc3c(c2)-c2ccccc2C3)CC1=O (stereo unspecified) | 51.3% [50 µM] (inactive) |
| COc1cc(C(=O)C(=O)c2cc(OC)c(O)c(OC)c2)cc(OC)c1O | 89.6% (inactive) |
| CCCCSCC(=O)c1ccccc1 | 58.2% (inactive) |
